Test system: SARS-CoV-2 B.1.1.7 lineage
Experiment: microbe, parasite or virus in culture
Format: cell-based
Settings: Severe acute respiratory syndrome coronavirus 2; Table C; SARS-CoV-2 B.1.1.7 in A549-dual_ACE2_TMPRSS2 cells, class symbols; read-out: A549-dual_ACE2_TMPRSS2 (EC50)
endpoint.label: EC50

Study these solved cases before continuing.
{"columns": ["compound.structure.string", "observed.measurement"],
 "data": [
  ["CC(C)C[C@@H](C(=O)N1C[C@@]2(C[C@H]1C#N)CC1(CCCC1)NC2=O)N(C)C(=O)[C@H](C)NC(=O)C(F)(F)F", "100 to 1000 nM"],
  ["CN(C(=O)[C@H](CC1CC1)NC(=O)C(F)(F)F)[C@@H](CC1CC1)C(=O)N1C[C@@]2(C[C@H]1C#N)Oc1cnccc1NC2=O", "100 to 1000 nM"]
]}

## Task Give SARS-CoV-2 B.1.1.7 lineage EC50 for CN(C(=O)[C@H](CC1CC1)n1cc(C2CC2)nn1)[C@@H](CC1CC1)C(=O)N1C[C@@]2(C[C@H]1C#N)Oc1cc(F)cc(F)c1NC2=O
## Result < 100 nM

## Task Lookup C[C@H](NC(=O)c1ccc(F)cc1)C(=O)N(C)[C@@H](CC1CC1)C(=O)N1C[C@@]2(C[C@H]1C#N)Oc1cccnc1NC2=O
## Result 100 to 1000 nM

## Task Now the same for CN(C(=O)[C@H](CC1CC1)NC(=O)c1ccc(F)cc1)[C@@H](CC1CC1)C(=O)N1C[C@@]2(C[C@H]1C#N)Oc1cc(F)cc(F)c1NC2=O
## Result < 100 nM
